# tested-system: GLP-1 receptor (GLP-1R), primary cAMP assay (human, UniProt P43220 24-463)
# method-description: cell-based or functional assay
Starred links: 1 amine or outer side, 2 acyl side, 3 side chain; linkers in the order of their positions; H or OH if unused. Non-standard residues stand in square brackets, D forms with d. Groups on a side chain read outwards from the residue. Primed or numbered codes have the meaning given here. No end group written: not given here. *: point of attachment. γGlu = O=C(O)[C@H](CCC(=O)[*:2])N[*:1]; Palmitoyl = CCCCCCCCCCCCCCCC(=O)*; αMeF = C[C@](N)(Cc1ccccc1)C(=O)O; Myristoyl = CCCCCCCCCCCCCC(=O)*; αMeK = C[C@](N)(CCCCN)C(=O)O; αMeS = C[C@](N)(CO)C(=O)O; PEG2′ = not defined here; Aib = CC(C)(N)C(=O)O
measurement-kind: Primary assay EC50 (cAMP) Mean (pM)

a = H[Aib]EGS[αMeF]TSDK([PEG2′-PEG2′-γGlu-Palmitoyl])SSYLEGEAA[αMeK]EFIK([PEG2′-PEG2′-γGlu-Palmitoyl])WVVEGG-NH2 [SEQ ID NO: 259]
b = H[Aib]EGS[αMeF]TSDV[αMeS]SK([PEG2′-PEG2′-γGlu-Myristoyl])LEGEAA[αMeK]E[αMeF]IAK([PEG2′-PEG2′-γGlu-Myristoyl])VVEGG-NH2 [SEQ ID NO: 408]
Select one. Lower Primary assay EC50 (cAMP) Mean: a or b Your choice should be expressed through its label.
b
